biological target: PRMT5/MEP50 complex (Homo sapiens, UniProt O14744); construct: purchased Reaction Biology Corporation; experiment: PRMT5:MEP50 HotSpot Assay (full-length histone H2A substrate, plus and minus MTA); assay type: biochemical; conditions: IC50 + 2 μM MTA, in the presence of 2 μM MTA
Sequence (O14744 2-637 limits assumed): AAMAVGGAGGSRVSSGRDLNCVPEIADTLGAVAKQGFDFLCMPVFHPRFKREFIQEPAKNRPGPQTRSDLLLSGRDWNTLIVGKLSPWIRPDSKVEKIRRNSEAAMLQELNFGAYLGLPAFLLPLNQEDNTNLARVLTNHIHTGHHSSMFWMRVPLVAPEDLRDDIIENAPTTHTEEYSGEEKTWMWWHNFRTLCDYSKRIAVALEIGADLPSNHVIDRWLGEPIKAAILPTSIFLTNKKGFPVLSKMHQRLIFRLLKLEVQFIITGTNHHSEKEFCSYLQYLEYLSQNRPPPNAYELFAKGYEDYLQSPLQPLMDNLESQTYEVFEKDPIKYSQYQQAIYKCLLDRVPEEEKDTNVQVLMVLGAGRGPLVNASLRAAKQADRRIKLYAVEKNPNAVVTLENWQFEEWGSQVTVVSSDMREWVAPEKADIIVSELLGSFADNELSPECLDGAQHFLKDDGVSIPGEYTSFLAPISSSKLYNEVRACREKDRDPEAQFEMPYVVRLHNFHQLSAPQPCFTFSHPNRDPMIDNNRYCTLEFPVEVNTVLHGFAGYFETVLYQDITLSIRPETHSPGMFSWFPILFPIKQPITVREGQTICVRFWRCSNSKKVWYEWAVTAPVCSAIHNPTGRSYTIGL
Sequence (Q9BQA1 2-342 partner limits assumed): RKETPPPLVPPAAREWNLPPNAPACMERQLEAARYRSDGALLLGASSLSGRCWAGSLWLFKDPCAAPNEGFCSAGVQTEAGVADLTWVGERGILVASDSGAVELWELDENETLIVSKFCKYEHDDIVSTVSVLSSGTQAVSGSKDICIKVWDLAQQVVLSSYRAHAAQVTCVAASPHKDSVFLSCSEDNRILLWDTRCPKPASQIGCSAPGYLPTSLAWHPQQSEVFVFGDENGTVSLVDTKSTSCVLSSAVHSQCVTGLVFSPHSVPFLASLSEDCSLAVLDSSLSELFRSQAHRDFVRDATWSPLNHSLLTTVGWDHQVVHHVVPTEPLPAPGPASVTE
pIC50: −log10 of the molar value.
Use yes (1) when the recorded pIC50 is no lower than 7; use no (0) when it is lower.

# example entries with known answers
compound	group_label
Cn1ncc(-c2cc(C(=O)C(F)F)c3c(=O)[nH]nc(CN)c3c2)c1-c1sc2ccccc2c1C#N [Example 15-9]	no (0)
Cc1cc(OC2CC2)c(C#N)c(-c2c(-c3cc(Cl)c4c(=O)[nH]nc(CN)c4c3)cnn2C)c1F (single isomer, unassigned) [Example 16-26]	yes (1)
C[C@@H](N)c1n[nH]c(=O)c2ccc(-c3cnn(C)c3-c3ccc4ccccc4c3C#N)nc12 [Example 20-1]	no (0)
Cn1ncc(-c2ccc3c(=O)[nH]nc(CN)c3c2)c1-c1c(C#N)cc2ccccc2c1F (single isomer, unassigned) [Example 16-54]	yes (1)
Cn1ncc(-c2ccc3c(=O)[nH]nc(CN)c3c2)c1-c1c(C#N)c(OC2CC2)c2ccccc2c1Cl (single isomer, unassigned) [Example 16-24]	yes (1)

Prompt: Would you say Cn1ncc(-c2ccc3c(=O)[nH]nc(C4(N)CC4)c3c2)c1-c1sc2ccccc2c1C#N [Example 9-8] shows pIC50 at minimum 7?
Response: no (0)

Prompt: Would you say CCOc1cc(-c2cnn(C)c2-c2c(F)c(C)c3ccccc3c2C#N)cc2c(CN)n[nH]c(=O)c12 (single isomer, unassigned) [Example 16-82] shows pIC50 at minimum 7?
Response: no (0)

Prompt: Would you say Cc1c(F)c(-c2c(-c3cc(C)c4c(=O)[nH]nc(CN)c4c3)cnn2C)c(C#N)c2ccccc12 (single isomer, unassigned) [Example 16-41] shows pIC50 at minimum 7?
Response: no (0)

Prompt: Would you say CC(C)n1ncc(-c2ccc3c(=O)[nH]nc(CN)c3c2)c1-c1sc2ccccc2c1C#N [Example 19-2] shows pIC50 at minimum 7?
Response: no (0)

====

target: PRMT5/MEP50 complex (Homo sapiens); construct: purchased Reaction Biology Corporation; assay: PRMT5:MEP50 HotSpot Assay (full-length histone H2A substrate, plus and minus MTA); assay type: biochemical; conditions: IC50 + 2 μM MTA, in the presence of 2 μM MTA
endpoint: IC50 (µM)
One number for each entry, in µM.

Completed entries (count: 6):
compound	u	IC50
Cn1ncc(-c2ccc3c(=O)[nH]nc(CN)c3c2)c1-c1sc2ccc(Cl)cc2c1C#N	µM	0.108
Cc1cc(-c2c(-c3ccc4c(=O)[nH]nc(CN)c4c3)cnn2C)n2c1CCCC2=O	µM	0.547
Cn1ncc(-c2ccc3c(=O)[nH]nc(CN)c3c2)c1-c1c(C#N)ccc2c1COC2 (single isomer, unassigned) [Example 16-69]	µM	6.54
CC(=O)Nc1cc(-c2cnn(C)c2-c2sc3ccccc3c2C#N)cc2c(CN)n[nH]c(=O)c12	µM	0.109
Cc1cc(-c2cnn(C)c2-c2c(F)c(Cl)cc(OC3CC3)c2C#N)cc2c(CN)n[nH]c(=O)c12 (single isomer, unassigned) [Example 16-46]	µM	0.0419
Cc1c(F)c(-c2c(-c3cc(C)c4c(=O)[nH]nc(CN)c4c3)cnn2C)c(C#N)c2cc(Cl)cnc12 (single isomer, unassigned) [Example 16-107]	µM	0.634

Give IC50 for each of the items listed below.
1. Cn1ncc(-c2ccc3c(=O)[nH]nc(CN)c3c2)c1-c1sc2ncc(Cl)cc2c1C#N
2. CCOc1cc(-c2cnn(C)c2-c2sc3ccccc3c2C#N)cc2c(CN)n[nH]c(=O)c12
3. Cn1ncc(-c2ccc3c(=O)[nH]nc(CN)c3c2)c1-c1csc2cccc(=O)n12
4. Cn1ncc(-c2ccc3c(=O)[nH]nc(CN)c3c2)c1-c1c(F)ccc(CC2CC2)c1C#N (single isomer, unassigned) [Example 16-30]

Response:
1. 0.119
2. 0.076
3. 6.14
4. 0.0364

Give IC50 for each of the items listed below.
1. Cc1cc(-c2cnn(C)c2-c2c(F)cc3ncc(Cl)cc3c2C#N)cc2c(CN)n[nH]c(=O)c12 (single isomer, unassigned) [Example 16-49]
2. CCOc1cc(-c2cnn(C)c2-c2c(F)ccc(OC3CC3)c2C#N)cc2c(CN)n[nH]c(=O)c12 (atropisomer, axis not shown; (M)) [Example 16-74]
3. Cn1ncc(-c2ccc3c(=O)[nH]nc(CN)c3c2)c1-c1c(F)cc2ccccc2c1C#N (single isomer, unassigned) [Example 16-1]

Response:
1. 0.166
2. 0.346
3. 0.038
